- System: N-87 (human gastric cancer cells)
- ASSAY TEXT: MTT cancer cell growth inhibition
- Assay type: cell-based
- TEST SETTINGS: Homo sapiens, 72 h, MTT, 72 hours incubation, N-87 cells; read-out: GI50 N-87
PARAMETER: GI50 (µM)

C/C=C1\NC(=O)c2nc(ccc2F)CNC(=O)C[C@@H](/C=C/CCS)OC(=O)[C@H](C)NC1=O [Compound 112] = 0.073
C/C=C1\NC(=O)c2nc(ccc2SC)CNC(=O)C[C@@H](/C=C/CCSC=O)OC(=O)[C@H](C(C)C)NC1=O [Compound 168] = 0.094
C=C1NC(=O)c2ccc(F)c(n2)CNC(=O)C[C@@H](/C=C/CCS)OC(=O)[C@H](C)NC1=O [Compound 142] = 0.042
CC(=O)SCC/C=C/[C@@H]1CC(=O)NCc2ccc(F)c(n2)C(=O)NC(=C(C)C)C(=O)N[C@@H](C(C)C)C(=O)O1 [Compound 87] = 0.021

A: C/C=C1\NC(=O)c2cc(SC)cc(n2)CNC(=O)C[C@@H](/C=C/CCSC(=O)CCC)OC(=O)[C@H](C(C)C)NC1=O [Compound 160]
B: C=C1NC(=O)c2cccc(n2)CNC(=O)C[C@@H](/C=C/CCS)OC(=O)[C@H](C(C)C)NC1=O [Compound 131]
Query string: When A and B are compared, which has the higher number for GI50? Respond with the label that goes with your answer.
Result string: B
(B: 0.095 µM, A: 0.049 µM)

---

- Tested on: PANC-1 (Pac-1, human pancreatic cancer cells)
- ASSAY TEXT: MTT cancer cell growth inhibition
- Format: cell-based
- TEST SETTINGS: Homo sapiens, PANC-1, 72 h, MTT, 72 hours incubation; read-out: GI50 PAN
PARAMETER: GI50 (nM)

C/C=C1\NC(=O)c2cc(F)cc(n2)CNC(=O)C[C@@H](/C=C/CCSC(C)=O)OC(=O)[C@H](Cc2ccc(O)cc2)NC1=O [Example 82] = 80

a: C/C=C1\NC(=O)c2nc(ccc2F)CNC(=O)C[C@@H](/C=C/CCSC(C)=O)OC(=O)[C@H](CCCCN)NC1=O [Compound 72]
b: C/C=C1\NC(=O)c2cccc(n2)NC(=O)C[C@@H](/C=C/CCSC(C)=O)OC(=O)[C@H](C(C)C)NC1=O [Example 22]
Query string: From the recorded data, which exceeds the other in GI50: a or b ? API: response body contains the label of the selected item.
Result string: b
(b: 4070 nM, a: 60 nM)

---

- Test system: DU145 (human prostate cancer cells)
- ASSAY TEXT: MTT cancer cell growth inhibition
- Format: cell-based
- TEST SETTINGS: Homo sapiens, DU-145, 72 h, MTT, 72 hours incubation; read-out: GI50 Du1
- Excerpt: MTT assay principle is yellow MTT can penetrate membrane into the cell, succinic dehydrogenase of the mitochondria in living cells can make exogenous MTT reduction of insoluble in water of blue-violet acicular formazan for crystallization and deposition in the cell, crystallization can be dissolved dimethyl sulfoxide (DMSO) solution, detected its absorbance at 490 nm/570 nm wavelength by enzyme-linked immunosorbent assay, which can reflect the number of cells. […] e) 570 nm readings. […]
PARAMETER: GI50 (nM)

C/C=C1\NC(=O)c2nc(ccc2F)CNC(=O)C[C@@H](/C=C/CCSC=O)OC(=O)[C@H](C(C)C)NC1=O = 40
C/C=C1\NC(=O)c2ccc(F)c(n2)CNC(=O)C[C@@H](/C=C/CCSC(=O)CCCCCCC)OC(=O)[C@H](C(C)C)NC1=O = 30
C/C=C1\NC(=O)c2ccc(F)c(n2)CNC(=O)C[C@@H](/C=C/CCSC(=O)CC)OC(=O)[C@H](C(C)C)NC1=O = 30
C/C=C1\NC(=O)c2cccc(n2)CNC(=O)C[C@@H](/C=C/CCSC(=O)CCCCCCC)OC(=O)[C@H](C)NC1=O = 30
C/C=C1\NC(=O)c2cccc(n2)CNC(=O)C[C@@H](/C=C/CCSC(C)=O)OC(=O)[C@@H](C)NC1=O = 1300

1: C/C=C1\NC(=O)c2nc(ccc2F)CNC(=O)C[C@@H](/C=C/CCSC(=O)CCC)OC(=O)[C@H](C(C)C)NC1=O
2: C=C1NC(=O)c2nc(ccc2F)CNC(=O)C[C@@H](/C=C/CCS)OC(=O)[C@H](C)NC1=O
Query string: Lower value of GI50 belongs to which: 1 or 2 ? Refer to your chosen entry by its label in the reply.
Result string: 2
(2: 60 nM, 1: 100 nM)
